Each recorded value in this set is attributed to patent US20220040297A1.

Biological target: CD3ε homodimer protein (human, UniProt P07766 23-126, limits assumed)
Sequence (P07766 23-126 limits assumed): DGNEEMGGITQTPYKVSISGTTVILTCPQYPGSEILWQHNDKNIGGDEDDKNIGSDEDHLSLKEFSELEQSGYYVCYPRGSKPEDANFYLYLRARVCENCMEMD
Experiment: SPR, immobilized CD3ε homodimer;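 note: biacore T200 surface plasmon resonance at 25 °C, antibody variants flowed as analytes over amine-coupled CD3ε homodimer on a CM4 chip, variant binding amount divided by that of GLS3000 antibody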
Listed binders paired with reported ratio of amounts bound (vs GLS3000)
Simply state the number, no unit and no words.

Some entries whose results are on file:
{"Binder": "GLS3000 G91A (antibody, name in Kabat numbering, V domains shown, one-arm format as m2) VH: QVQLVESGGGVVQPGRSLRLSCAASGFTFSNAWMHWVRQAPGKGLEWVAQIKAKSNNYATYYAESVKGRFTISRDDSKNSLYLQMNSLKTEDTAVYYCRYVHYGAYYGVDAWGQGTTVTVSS VL: DIVMTQSPLSLPVTPGEPASISCRSSQSLVHSNRNTYLHWYQQKPGQAPRLLIYKVSNRFSGVPDRFSGSGSGTDFTLKISRVEAEDVGVYYCGQATQVPYTFGQGTKLEIK", "ratio of amounts bound (vs GLS3000)": 0.27}
{"Binder": "GLS3000 V27cE (antibody, name in Kabat numbering, V domains shown, one-arm format as m2) VH: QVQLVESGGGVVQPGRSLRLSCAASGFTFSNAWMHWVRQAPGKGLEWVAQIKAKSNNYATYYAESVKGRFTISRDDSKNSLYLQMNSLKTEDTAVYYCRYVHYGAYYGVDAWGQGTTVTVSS VL: DIVMTQSPLSLPVTPGEPASISCRSSQSLEHSNRNTYLHWYQQKPGQAPRLLIYKVSNRFSGVPDRFSGSGSGTDFTLKISRVEAEDVGVYYCGQGTQVPYTFGQGTKLEIK", "ratio of amounts bound (vs GLS3000)": 0.61}
{"Binder": "GLS3000 N53S (antibody, name in Kabat numbering, V domains shown, one-arm format as m2) VH: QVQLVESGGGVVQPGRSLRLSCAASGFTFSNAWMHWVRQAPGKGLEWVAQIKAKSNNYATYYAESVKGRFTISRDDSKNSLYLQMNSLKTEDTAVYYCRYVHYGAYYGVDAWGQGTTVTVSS VL: DIVMTQSPLSLPVTPGEPASISCRSSQSLVHSNRNTYLHWYQQKPGQAPRLLIYKVSSRFSGVPDRFSGSGSGTDFTLKISRVEAEDVGVYYCGQGTQVPYTFGQGTKLEIK", "ratio of amounts bound (vs GLS3000)": 0.69}
{"Binder": "GLS3000 N28I (antibody, name in Kabat numbering, V domains shown, one-arm format as m2) VH: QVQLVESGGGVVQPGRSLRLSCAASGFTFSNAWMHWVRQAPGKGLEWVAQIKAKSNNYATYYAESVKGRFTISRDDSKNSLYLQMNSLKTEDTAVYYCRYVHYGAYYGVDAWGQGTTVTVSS VL: DIVMTQSPLSLPVTPGEPASISCRSSQSLVHSIRNTYLHWYQQKPGQAPRLLIYKVSNRFSGVPDRFSGSGSGTDFTLKISRVEAEDVGVYYCGQGTQVPYTFGQGTKLEIK", "ratio of amounts bound (vs GLS3000)": 0.44}
{"Binder": "GLS3000 H27dL (antibody, name in Kabat numbering, V domains shown, one-arm format as m2) VH: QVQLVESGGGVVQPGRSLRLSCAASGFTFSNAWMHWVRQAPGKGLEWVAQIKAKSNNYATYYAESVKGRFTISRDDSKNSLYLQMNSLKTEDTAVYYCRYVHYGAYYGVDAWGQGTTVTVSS VL: DIVMTQSPLSLPVTPGEPASISCRSSQSLVLSNRNTYLHWYQQKPGQAPRLLIYKVSNRFSGVPDRFSGSGSGTDFTLKISRVEAEDVGVYYCGQGTQVPYTFGQGTKLEIK", "ratio of amounts bound (vs GLS3000)": 0.3}

Output measured ratio of amounts bound (vs GLS3000) for this item: GLS3000 V51P (antibody, name in Kabat numbering, V domains shown, one-arm format as m2) VH: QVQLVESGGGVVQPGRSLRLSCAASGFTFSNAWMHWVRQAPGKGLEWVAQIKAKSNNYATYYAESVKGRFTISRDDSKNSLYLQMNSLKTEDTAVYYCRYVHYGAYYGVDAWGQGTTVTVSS VL: DIVMTQSPLSLPVTPGEPASISCRSSQSLVHSNRNTYLHWYQQKPGQAPRLLIYKPSNRFSGVPDRFSGSGSGTDFTLKISRVEAEDVGVYYCGQGTQVPYTFGQGTKLEIK 0.32

Write down ratio of amounts bound (vs GLS3000) measured for item GLS3000 G89M (antibody, name in Kabat numbering, V domains shown, one-arm format as m2) VH: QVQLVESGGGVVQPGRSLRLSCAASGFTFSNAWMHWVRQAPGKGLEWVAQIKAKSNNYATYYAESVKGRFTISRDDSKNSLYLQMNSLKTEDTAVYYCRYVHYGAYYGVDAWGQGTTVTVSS VL: DIVMTQSPLSLPVTPGEPASISCRSSQSLVHSNRNTYLHWYQQKPGQAPRLLIYKVSNRFSGVPDRFSGSGSGTDFTLKISRVEAEDVGVYYCMQGTQVPYTFGQGTKLEIK 0.52

Check the records and state ratio of amounts bound (vs GLS3000) for GLS3000 N28P (antibody, name in Kabat numbering, V domains shown, one-arm format as m2) VH: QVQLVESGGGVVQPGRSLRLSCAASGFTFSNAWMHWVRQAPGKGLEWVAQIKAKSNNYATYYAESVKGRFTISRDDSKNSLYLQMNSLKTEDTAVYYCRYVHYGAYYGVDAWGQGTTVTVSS VL: DIVMTQSPLSLPVTPGEPASISCRSSQSLVHSPRNTYLHWYQQKPGQAPRLLIYKVSNRFSGVPDRFSGSGSGTDFTLKISRVEAEDVGVYYCGQGTQVPYTFGQGTKLEIK 0.36

Give me measured ratio of amounts bound (vs GLS3000), please, for this binder: GLS3000 N53W (antibody, name in Kabat numbering, V domains shown, one-arm format as m2) VH: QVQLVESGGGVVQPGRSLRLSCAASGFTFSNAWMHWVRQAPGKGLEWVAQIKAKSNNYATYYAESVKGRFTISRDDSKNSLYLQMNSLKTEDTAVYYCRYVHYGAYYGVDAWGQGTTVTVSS VL: DIVMTQSPLSLPVTPGEPASISCRSSQSLVHSNRNTYLHWYQQKPGQAPRLLIYKVSWRFSGVPDRFSGSGSGTDFTLKISRVEAEDVGVYYCGQGTQVPYTFGQGTKLEIK 0.81

Supply measured ratio of amounts bound (vs GLS3000) of GLS3000 K50S (antibody, name in Kabat numbering, V domains shown, one-arm format as m2) VH: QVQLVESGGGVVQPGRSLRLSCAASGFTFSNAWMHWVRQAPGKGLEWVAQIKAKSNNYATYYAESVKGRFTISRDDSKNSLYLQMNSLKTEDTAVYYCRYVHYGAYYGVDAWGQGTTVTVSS VL: DIVMTQSPLSLPVTPGEPASISCRSSQSLVHSNRNTYLHWYQQKPGQAPRLLIYSVSNRFSGVPDRFSGSGSGTDFTLKISRVEAEDVGVYYCGQGTQVPYTFGQGTKLEIK in your reply. 0.23
